Target: recombinant EphB4 (Homo sapiens, UniProt P54760)
Construct: amino acids 563-987; Swiss-Prot Acc; No. P54760
Sequence (P54760 563-987): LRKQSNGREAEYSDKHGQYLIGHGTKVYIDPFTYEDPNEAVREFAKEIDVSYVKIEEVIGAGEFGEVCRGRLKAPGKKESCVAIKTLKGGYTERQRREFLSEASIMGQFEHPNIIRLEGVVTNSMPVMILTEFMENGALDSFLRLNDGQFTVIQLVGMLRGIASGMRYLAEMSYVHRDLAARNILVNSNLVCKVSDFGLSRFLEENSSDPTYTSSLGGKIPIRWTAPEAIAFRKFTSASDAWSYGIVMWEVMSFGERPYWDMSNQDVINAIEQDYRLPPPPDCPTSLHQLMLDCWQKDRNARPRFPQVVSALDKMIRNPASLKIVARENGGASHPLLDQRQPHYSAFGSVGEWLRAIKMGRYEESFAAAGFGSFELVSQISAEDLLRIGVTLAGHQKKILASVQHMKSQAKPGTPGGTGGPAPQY
Assay: In vitro EphB4 enzyme assay (Alphascreen)
Experimental Readout: IC50 (µM)

CC(=O)c1ccc(C)c(N(C)c2ccnc(Nc3cc(N4CCOCC4)cc(N4CCOCC4)c3)n2)c1 [Example 25.5] ... 0.127

(I) Cc1ccc(CO)cc1N(C)c1ccnc(Nc2cc(C#N)cc(N3CCOCC3)c2)n1 [Example 7.15]
(II) CN(CCCO)C(=O)c1cc(Nc2nccc(N(C)c3cccc(Cl)c3)n2)cc(N2CCOCC2)c1 [Example 19.4]
(III) Cc1ccc(CO)cc1N(C)c1ccnc(Nc2cc(O[C@H]3CCOC3)cc(N3CCOCC3)c2)n1 [Example 17.9]
(IV) CN(c1ccnc(Nc2cc(CN3CCC(O)CC3)cc(N3CCOCC3)c2)n1)c1ccc(F)c(Cl)c1F [Example 2.19]
(V) Cc1ccc(CO)cc1N(C)c1ccnc(Nc2cc(N3CCOCC3)cc(N3CCOC[C@H]3C)c2)n1 [Example 7.18]
Ascending sort, IC50. Give me the labels in the order the question wants.
V, IV, I, II, III
(V: 0.00645 µM, IV: 0.0596 µM, I: 0.195 µM, II: 0.295 µM, III: 0.443 µM)

(A) C[C@@H](CO)N(C)C(=O)c1cc(Nc2nccc(N(C)c3cccc(Cl)c3)n2)cc(N2CCOCC2)c1 [Example 19.6]
(B) CC(=O)N1CCN(c2cc(Nc3nccc(N(C)c4ccc(F)c(Cl)c4F)n3)cc(S(C)(=O)=O)c2)CC1 [Example 2.12]
(C) Cc1ccc(CO)cc1N(C)c1ccnc(Nc2cc(C(=O)N(C)C)cc(N3CCOCC3)c2)n1 [Example 7.11]
(D) CN(c1ccnc(Nc2cc(F)cc(N3CCOCC3)c2)n1)c1ccc(F)c(Cl)c1F [Example 2.2]
(E) CN(c1cccc(Cl)c1)c1ccnc(Nc2cc(C(=O)NC3CCOCC3)cc(N3CCOCC3)c2)n1 [Example 19.24]
Put the entries in order of IC50, starting with the largest number. // ordering of labels required in reply
D, E, A, B, C

----------
Target: recombinant EphB4 (Homo sapiens)
Construct: amino acids 563-987; Swiss-Prot Acc; No. P54760
Test: In vitro EphB4 enzyme assay (Alphascreen)
Experimental Readout: IC50 (nM)

Please review the following examples before continuing.
CC(C)N(C)C(=O)c1cc(Nc2nccc(N(C)c3cccc(Cl)c3)n2)cc(N2CCOCC2)c1 ... 1450
CN(c1ccnc(Nc2cc(C#N)cc(N3CCOCC3)c2)n1)c1ccc(F)c(Cl)c1F ... 937

(a) CN(c1ccnc(Nc2cc(N3CCOCC3)cc(N3CCOCC3)c2)n1)c1cccc(Cl)c1F
(b) CN(c1cccc(Cl)c1)c1ccnc(Nc2cc(C(=O)NC(C)(C)CO)cc(N3CCOCC3)c2)n1
Returns: the argument ( a or b ) having the larger IC50. To answer, give the label that identifies your chosen option.
b

(P) C[C@@H](CO)NC(=O)c1cc(Nc2nccc(N(C)c3cccc(Cl)c3)n2)cc(N2CCOCC2)c1
(Q) CN(c1ccnc(Nc2cc(N3CCOCC3)cc(N3CCOCC3)c2)n1)c1cccc(Cl)c1Cl
(R) COc1ccc(F)c(N(C)c2ccnc(Nc3cc(N4CCOCC4)cc(N4CCOCC4)c3)n2)c1
List from greatest to least IC50. Quick reminder: the answer is the labels in the order asked.
Q, P, R
